Origin of values: patent US20130324707A1

Reported CMC by item:
Experiment: Critical micelle concentration (CMC) by fluorescent dye uptake
Type: physicochemical
Return type: number; implicit unit mM.

CCCCCCCCC(=O)NCC(CNC(=O)CCCCCCCC)(COC1OC(CO)C(OC2OC(CO)C(O)C(O)C2O)C(O)C1O)COC1OC(CO)C(OC2OC(CO)C(O)C(O)C2O)C(O)C1O (stereo not drawn) :: 0.3

# lookup: CMC of CCCCCCCCCC(CCCCCCCCC)(COC1OC(CO)C(OC2OC(CO)C(O)C(O)C2O)C(O)C1O)COC1OC(CO)C(OC2OC(CO)C(O)C(O)C2O)C(O)C1O (stereo not drawn)
0.018

# lookup: CMC of CCCCCCCCCCC(CCCCCCCCCC)(COC1OC(CO)C(OC2OC(CO)C(O)C(O)C2O)C(O)C1O)COC1OC(CO)C(OC2OC(CO)C(O)C(O)C2O)C(O)C1O (stereo not drawn)
0.01

# lookup: CMC of CCCCCCC(CCCCCC)(COC1OC(CO)C(O)C(O)C1O)COC1OC(CO)C(O)C(O)C1O (stereo not drawn)
1.02

# lookup: CMC of CCCCCCCCCOCC(COCCCCCCCCC)(COC1OC(CO)C(OC2OC(CO)C(O)C(O)C2O)C(O)C1O)COC1OC(CO)C(OC2OC(CO)C(O)C(O)C2O)C(O)C1O (stereo not drawn)
0.017

# lookup: CMC of CCCCCCCCCCCC(CCCCCCCCCCC)(CO[C@H]1OC(CO)[C@H](O[C@@H]2OC(CO)[C@H](O)C(O)[C@H]2O)C(O)[C@H]1O)CO[C@H]1OC(CO)[C@H](O[C@@H]2OC(CO)[C@H](O)C(O)[C@H]2O)C(O)[C@H]1O (stereo partly drawn)
0.0037
